Measured apparent KD of MS2 coat protein by item
# Test system: MS2 coat protein
# experiment summary: apparent KD of MS2 coat protein, switch ON state; designed switch direction (-1 OFF switch, 1 ON switch): -1; higher = weaker reporter binding
# condition: FMN input: 0 or 200 uM; Eterna round: R93 (includes R88 designs)
Dear colleague, please return just the value in µM, with no unit written.

sequence content: AAUAAACAUGAGGAUCACCCAUGUCAGGAUAUGCACAAACAAACAAACAAACAAGCAAGCAGAAGGGACACUAC [Amethyst 88]
unit abbreviation: µM
endpoint value: 0.0254

[ask] Consider the sequence shown here: AAAAAACAUGAGGAUCACCCAUGUAAGGAUAUGCUCGUGCGAAAAAGCACAAAAAAGAGCAGAAGGUACAAAAA [66%, Wbt, 40] What is its recorded apparent KD of MS2 coat protein?
[reply] 0.0188

[ask] Next sequence: AAGAAGUGAGGAUAUCGAAGACUGUCGAAAAGACAGUCGAACGAGAAGGCACAUGAGGAUCACCCAUGUGAUAA [Mat - Exaclusion 4 - Eli mod - D70]
[reply] 0.0282

* * *

# System: K4 kissing-loop RNA reporter;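 note: bound reporter read as fluorescence of individual clusters on recovered sequencing chips by microscopy, with normalized cluster intensities fitted with a binding model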
# experiment summary: apparent KD of K4 kissing-loop reporter; higher = weaker reporter binding
# condition: Eterna round: R107; input ligand: FMN 200 uM
Measured apparent KD of K4 kissing-loop reporter by item
Dear colleague, please return just the value in nM, with no unit written.

sequence content: GUUACGCAUGGAAGGAGCGCACUCCGAUUGGUCGACACAGUGAUGUUGUGGUUCGUUCGAAUGCAGGUAGGUCGCCAUGUGUAAC [Ex Arginine B K4 18]
tgt: K4 kissing-loop RNA reporter
apparent KD of K4 kissing-loop reporter, nM: 165

sequence content: UUAUAUAAGGGAAGGAGCGCGUGGGCGCAGUGAUGUUGCGCCCGACAUCACUUCAACUUAACGCAGGUAGGUCGCCCUUUUAAUA [Arginine B (Excl) V4]
tgt: K4 kissing-loop RNA reporter
apparent KD of K4 kissing-loop reporter, nM: 188

sequence content: AAGUGUGUGGCGGCCGCCACUAGAAUCCAGUGAUGUUGGAGAUAUCAUGUAAAUGAUAUCCAACAUAGGACCGGGCCAUAUAGAA [Same State - Tryptophan B (Freestyle 10)]
tgt: K4 kissing-loop RNA reporter
apparent KD of K4 kissing-loop reporter, nM: 126

sequence content: AGGUCCGAGCCCGGAAGGGCUCGGACCUGUUAGGAUAUGACGUGAUUCAGAAGGGAUGGGUGGAGUGAUGUUCCACCCGAGAGGG [#2 Same State - FMN A Attempt #20 (HarryS)]
tgt: K4 kissing-loop RNA reporter
apparent KD of K4 kissing-loop reporter, nM: 105

sequence content: GUACGCUCUCGAGUGAUGUUCGAUAAUCGCGAGGAUAUCGCUUUUGCGAGAAGGCGCGGAAUGAGGAAACUCGUUCUGAGUGUAC [FMN A 24]
tgt: K4 kissing-loop RNA reporter
apparent KD of K4 kissing-loop reporter, nM: 603

[ask] Consider the sequence shown here: UGGAGUUGACGAAAAGUCAACUCCUGGGAAGGAGCGGACGAAAGUCCAGGUAGGUCGCCCACUACCAGUGAUGUUGGUACUCAAA What is its recorded apparent KD of K4 kissing-loop reporter?
[reply] 178

[ask] Next sequence: CCUAUCUCGUACGAUACCAGACUAUGAUCUUUGAUCAAUGCCAUCACCGAGUGAUGUUCGGUCCCUUGGCAGCGUAUGAGAUGGG [#12 K4 Theophylline B Exclusion]
[reply] 179

[ask] Next sequence: AAGAAGAAUGGAAGGAGCGAGCAGAUAUAACCAGUGAUGUUGGAAAGCCUUAUUGCUUAAGCUCAGGUAGGUCGCCAAGAAAAGA [whbob_Ex_Arginine_B_2t151]
[reply] 162

[ask] Next sequence: UUUGGUAUCUCGGCCGCCACUCGUGGGAAAUGGGCCUCAGGGAUAUAGUGAUGUUAUGUAAAGAAGAGGACCGGGAGAAGGAAGG [ExTryptoB.Dk]
[reply] 343

* * *

# System: MS2 coat protein
# experiment summary: apparent KD of MS2 coat protein, switch ON state; designed switch direction (-1 OFF switch, 1 ON switch): 1; higher = weaker reporter binding
# condition: FMN input: 0 or 200 uM; Eterna round: R93 (includes R88 designs)
Measured apparent KD of MS2 coat protein by item
// unit must come after the numeric part

Reference set (5 entries):
sequence content: AGAAAACAUGAGGAUCACCCAUGUAGAAAUAUGGGAGGAUAUACAAAGACGAAAGUCAAAGUAGAAGGCCUAAAAG [Mat - Same State 1 - Eli mod - 35]
value type: apparent KD of MS2 coat protein
endpoint value: 23.2 nM
--
sequence content: AACCAACAUGAGGAUCACCCAUGUCUACAGGAUUAAGGAUAUGGGCAGGGCUUCCCUGCACUAGAAGGUGAUCCAA [Enonenen]
value type: apparent KD of MS2 coat protein
endpoint value: 409 nM
--
sequence content: AAUAGACAUGAGGAUCACCCAUGUAGAAUUAUGGGAGGAUAUACAAAGACGAGAGUCAGAGUAGAAGGCCUAGGAG [salish99-ss1-150]
value type: apparent KD of MS2 coat protein
endpoint value: 22.1 nM
--
sequence content: AAAAGACAUGAGGAUCACCCAUGUCAAAACGUAGGAGGAUAUGUAUGGAAACCAUACUGUACAGAAGGCCUUUGUC [SS1 - 77]
value type: apparent KD of MS2 coat protein
endpoint value: 14 nM
--
sequence content: AGAAGACAUGAGGAUCACCCAUGUGCACGUGGAGGAGGAUAUGCUAGUAGAAGAUAGAAUGCAGAAGGCCUAAGAA [Mat - Mod]
value type: apparent KD of MS2 coat protein
endpoint value: 51.9 nM

[ask] Consider the sequence shown here: AAAAAACAUGAGGAUCACCCAUGUAAAAAUAUGGGAGGAUAUGCGAAAAGAAACAAAGAAGCAGAAGGCCUAAAAA [75%, Ex5 sub 1, 8] What is its recorded apparent KD of MS2 coat protein?
[reply] 25.6 nM

[ask] Next sequence: AAAUGAUCAUGUGAGGAUAUCCAUAAUAAAACAUGAGGAUCACCCAUGUAUAGAUAAUAAUAAUGGGAGAAGGCACAUGAUCAAU [Mat - Same state - Mayanna Mod - D103]
[reply] 20 nM

[ask] Next sequence: AGGAAACAUGAGGAUCACCCAUGUAAAAAAUAUGGAGGAUAUGCUAGAAGAAACAAAAUAGCAGAAGGCCAAAAAA [75%, Ex sub1, 23]
[reply] 13.7 nM

[ask] Next sequence: AACCAACAUGAGGAUCACCCAUGUCAACCCAAGCGAGGAUAUCGGAGAAUAACAAUGGGACGAGAAGGCGCGACCU [ss1-2]
[reply] 34.4 nM

* * *

# Tested on: MS2 coat protein
# experiment summary: apparent KD of MS2 coat protein; higher = weaker reporter binding
# condition: Eterna round: R107; input ligand: theophylline 2 mM
Measured apparent KD of MS2 coat protein by item
Dear colleague, please return just the value in nM, with no unit written.

sequence content: GCCAUCGGCGGAAGCCGAUGGUAUACGGAAGGAGCGCACGAAAGUGCAGGUAGGUCGCUGAACAUGAGGAUCACCCAUGUAAUAA [#28 Same State - Arginine A]
apparent KD of MS2 coat protein (nM): 24.1

[ask] Consider the sequence shown here: GCAUCCUAGUCGGCCGCCACUGCAACAUGAGGAUCACCCAUGUCUGUAUGUGAUCCAUGCAGUAGCAGGACCGGGACUAGGAUGC [(T1)-(M1)-(M2)-(T)''-(M)'-(T)'-(T2)_Design3_2/18/17] What is its recorded apparent KD of MS2 coat protein?
[reply] 833

[ask] Next sequence: ACGAUAGGACUUGAGGAACACCCAAGUGAUACCAGCCUGGAAACAGGCCCUUGGCAGCACUAAUACUCCAAUAACCUAUCGAAUA [TheoAX 15 #MicroSwitchBubble #AlternativeMS2]
[reply] 66.7

* * *

# Test system: MS2 coat protein
# experiment summary: apparent KD of MS2 coat protein; higher = weaker reporter binding
# condition: Eterna round: R107; input ligand: arginine 13.2 mM
value type: apparent KD of MS2 coat protein (nM)
Dear colleague, please return just the value in nM, with no unit written.

Reference set (5 entries):
sequence content: CAUGCCAGGGCGGCCGCCACUGUGGCUACGGUACAUGAGGAUCACCCAUGUUUGUGGUUGAUCUACAGGACCGGGCCCUAGCACG [Anananenes]
value type: apparent KD of MS2 coat protein
endpoint value: 30.6

sequence content: ACACAUGAGGAUCACCCAUGUGCAAUAGAUACCAGUGACGCGGUGCACCCUUGGCAGCUGUUGCUGAGUGAUGGUUCCCUCGGAA [Exclusion Theophylline A GF 6]
value type: apparent KD of MS2 coat protein
endpoint value: 17.9

sequence content: AAACAUGAGGAUCACCCAUGUCCUCCUGUCCGAGGACCGGUACGGCCGCCACUCGGUUCUCGGGAGGAUGGUCAAAGACUAUCCA [Omei Trp A SS B v9]
value type: apparent KD of MS2 coat protein
endpoint value: 120

sequence content: UAUAUAGAUGGAAGUUCUAUAGAUGCAGAAGGAGCGUAGGAAACUACAGGUAGGUCGCUGAGGUACAUGAGGAUCACCCAUGUAG [SSArg A #20 Slice of Pi]
value type: apparent KD of MS2 coat protein
endpoint value: 14.3

sequence content: AAUAAUAAGGCGGCCGCCACUACACAUGAGGAUCACCCAUGUCUCGCGGGCUUGCGUUGGGAAUGUAGGACCGGGCCAAUAAUAA [Exclusion - Tryptophan B (Freestyle 10)]
value type: apparent KD of MS2 coat protein
endpoint value: 14.3

[ask] Consider the sequence shown here: GCAUCCUAGUCGGCCGCCACUGCAGUAGCACCUGCUACAUGGAAACAUGAGGAUCACCCAUGUAGCAGGACCGGGACUAGGAUGC [(Trp1)-(TM)''-(TM)'-(Ms2)-(Trp2)_Design8] What is its recorded apparent KD of MS2 coat protein?
[reply] 44.3

[ask] Next sequence: GGCUAGGCUAGCGAUACCAGCAACCAACAUGAUCUGAGGAUCACCCAGGUAGUUGGACGUUGCCCUUGGCAGCGCUAGCCUAGCC [SSThB NP+V+V2 #12 Diff Apt, Same Structure]
[reply] 15.4

[ask] Next sequence: GGAUAGGACAGAAGGAGCGACAUGCGACGAAAGUCGAAAAGAUCACAUGAGGAUCACCCAUGUCAGGUAGGUCGCUGUCCUAUCG [ArgXB 10 #Zipper #MS2Left #StaticStem #Blueprint]
[reply] 119

[ask] Next sequence: UCUGGUAUGACGGCCGCCACUAGAUCGUGAGAAGCCUGCAUACAUGAGGAUCACCCAUGUCUCACUAGGACCGGGUCAUUCCAAU [theeternabot_sameState_MS2_Trp_B_5]
[reply] 53.8

[ask] Next sequence: AUACCACCUUCGGCCGCCACUAUGUAUGGGUUCCCAACGUUGAAGGACAUGAGGAUCACCCAUGUUAGGACCGGGAAAAGUGCCU [theeternabot_exclusion_MS2_Trp_B_17]
[reply] 45.3

[ask] Next sequence: AUUAUCAUGGUCAUAUAUAUUUCGUCAGAUACCAGACUAGAUAUAGUCCCUUGGCAGCUGUUACAUGAGGAUCACCCAUGUUAUA [JR_ExcTheophyA_Sub016]
[reply] 55
